# assay_details: chemical genetic growth profiling, strain panel (AID 1159580);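 further: tested at 20 µM; growth read once vehicle control cultures reached saturation at 30 °C; 1 = growth at the plate median or of vehicle wells; lower values mean less growth of the strain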
# condition_set: S. cerevisiae deletion strains, growth OD, locus YJL164C, strain tpk1
Among all 5,500 compounds or so, about 2,000 (36%) were called active. Not shown: some 18% with an inconclusive outcome. No stated cut-off is given here; in the data, active means normalized growth mostly below about 0.91 (no sharp cut-off); inconclusive means no clear call, values can overlap the other calls; inactive means mostly above about 0.92. The list shows a part of the results.
Choose one outcome from this list and give only that: active, inactive

Hey, what did the test say about "O=C(O[C@@H]1Cc2c(O)cc(O)cc2O[C@@H]1c1cc(O)c(O)c(O)c1)c1cc(O)c(O)c(O)c1" ?
active

Same lookup for "CC(=O)Oc1cc(OC(C)=O)c2c(c1)O[C@H](c1ccc(OC(C)=O)c(OC(C)=O)c1)[C@H](OC(C)=O)C2" , please.
inactive

Same lookup for CN(C)CCCC1(c2ccc(F)cc2)OCc2cc(C#N)ccc21 (stereo unspecified) , please.
inactive

====

# assay_details: chemical genetic growth profiling, strain panel (AID 1159580);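 further: tested at 20 µM; growth read once vehicle control cultures reached saturation at 30 °C; 1 = growth at the plate median or of vehicle wells; lower values mean less growth of the strain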
# condition_set: S. cerevisiae deletion strains, growth OD, locus YER110C, hits give low values
Out of some 5,500 compounds screened, about 2,000 (36%) were called active. Inconclusive results (about 18%) are left out. The list shows a part of the results.
measured_quantity: normalized growth
Write no unit; give the number alone.

Given "COc1cc2c(cc1OC)C(=O)c1ccc(OC)c(OC)c1OCC(=O)C2" , state its recorded normalized growth.
1.01

Same lookup for "Oc1cc(O)c2c(c1)O[C@H](c1cc(O)c(O)c(O)c1)[C@H](O)C2" , please.
0.984

Same lookup for "COc1ccc2c(c1)OC/C(=C/c1ccc(OC)c(OC)c1)C2=O" , please.
0.945

Same lookup for "O=C(O)CCCc1ccccc1" , please.
1

Now consider the entry below.
Given C=C1CCC2[C@](C)(CO)[C@H](O)CC[C@@]2(C)[C@@H]1C/C=C1/C(=O)OC[C@H]1O (stereo not given in full) , state its recorded normalized growth.
1.02

====

# assay_details: chemical genetic growth profiling, strain panel (AID 1159580);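 further: tested at 20 µM; growth read once vehicle control cultures reached saturation at 30 °C; 1 = growth at the plate median or of vehicle wells; lower values mean less growth of the strain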
# condition_set: S. cerevisiae deletion strains, growth OD, locus YJL164C, strain tpk1
The campaign covered roughly 5,500 compounds. About 2,000 (36%) were called active. About 18% were inconclusive and are not listed. Cut-off read from the data, not from the text of the source: active = normalized growth mostly below about 0.91 (no sharp cut-off); inconclusive = no clear call, values can overlap the other calls; inactive = mostly above about 0.92. The list shows a part of the results.
Choose one outcome from this list and give only that: YES for active, NO for inactive

# count of solved cases: 5
Hey, what did the test say about "CCN(CC)Cc1ccc(Nc2ccnc3cc(Cl)ccc23)cc1O" ?
NO

Same lookup for C=C[C@@](C)(O)CCC1C(=C)CCC2[C@@](C)(CO)CCC[C@]12C (stereo partly drawn) , please.
NO

Same lookup for C[C@@H]1CC(Cl)CC[C@H]1C(=O)OC(C)(C)C (stereo partly drawn) , please.
NO

Same lookup for CC#CC1(O)CCC2C3CCC4=CC(=O)CCC4=C3C(c3ccc(N(C)C)cc3)CC21C (stereo not drawn) , please.
NO

Same lookup for "COc1ccc(-c2coc3cc(O)ccc3c2=O)c(O)c1O" , please.
YES

More entries:
Hey, what did the test say about "CCCc1cc(C(N)=S)ccn1" ?
NO

Same lookup for "COc1ccc2c(c1)OC/C(=C\c1ccc(OC)c(O)c1)C2=O" , please.
YES

Same lookup for "CCN(CC)C(=O)N1CCN(C)CC1" , please.
NO

Same lookup for "O=c1cccc2ccc(O)c(O)c2c1O" , please.
YES

Same lookup for "COc1ccc(C(=O)O)cc1OC" , please.
NO

Same lookup for N=c1ccn2c(n1)OC1C(O)C(CO)OC12 (stereo not drawn) , please.
NO

Same lookup for COC(=O)[C@@H]1OC(=O)C2OC23[C@@]1(C)CCC1[C@]2(C)C(C[C@H](O)[C@]13C)C(C)(C)[C@H](OC(C)=O)C[C@@H]2OC(C)=O (stereo partly drawn) , please.
NO

Same lookup for OCC(O)CN1CCN(c2ccccc2)CC1 (stereo not drawn) , please.
NO
